System: HS-PSS
experiment_notes: drug sensitivity score (DSS, CellTox-Green cytotoxicity, 72 h) (DSS (dimensionless)); higher = more cytotoxic; extreme values may be limits of the assay
Criterion: drug sensitivity score meeting or surpassing 0.2. Met: True. Not met: False.

Solved cases below.
{"compound": "CC(O)(CS(=O)(=O)c1ccc(F)cc1)C(=O)Nc1ccc(C#N)c(C(F)(F)F)c1 (centres undefined) [Bicalutamide] (max concentration tested 10000 nM)", "target_under_test": "HS-PSS", "assigned_label": "False"}
{"compound": "Cc1nc(NC(=O)N2CCC[C@H]2C(N)=O)sc1-c1ccnc(C(C)(C)C(F)(F)F)c1 [Alpelisib] (max concentration tested 2500 nM)", "target_under_test": "HS-PSS", "assigned_label": "False"}
{"compound": "O=C1CCC(N2C(=O)c3ccccc3C2=O)C(=O)N1 (centres undefined) [Thalidomide] (max concentration tested 10000 nM)", "target_under_test": "HS-PSS", "assigned_label": "False"}
{"compound": "CCn1nnc2c(N3CCOCC3)nc(-c3ccc(NC(=O)Nc4ccc(C(=O)N5CCN(C)CC5)cc4)cc3)nc21 [PKI-402] (max concentration tested 2500 nM)", "target_under_test": "HS-PSS", "assigned_label": "True"}

Decide: is the reported value of drug sensitivity score for O=c1[nH]cc(F)c(=O)[nH]1 [Fluorouracil] (max concentration tested 10000 nM) equal to or greater than 0.2? False

----------
System: YST-1
experiment_notes: relative IC50 (inflection point of fitted dose-response curve, CellTiter-Glo viability, 72 h; top asymptote may be below 50% inhibition); higher = less potent
test_readout: relative IC50

{"compound": "COC(=O)c1ccc2c(c1)NC(=O)/C2=C(\\Nc1ccc(N(C)C(=O)CN2CCN(C)CC2)cc1)c1ccccc1", "target_under_test": "YST-1", "test_result": "1120 nM"}
{"compound": "NC1(C(=O)N[C@@H](CCO)c2ccc(Cl)cc2)CCN(c2ncnc3[nH]ccc23)CC1", "target_under_test": "YST-1", "test_result": "2090 nM"}
{"compound": "CO[C@H]1C[C@@H]2CC[C@@H](C)[C@@](O)(O2)C(=O)C(=O)N2CCCC[C@H]2C(=O)O[C@H]([C@H](C)C[C@@H]2CC[C@@H](OC(=O)C(C)(CO)CO)[C@H](OC)C2)CC(=O)[C@H](C)/C=C(\\C)[C@@H](O)[C@@H](OC)C(=O)[C@H](C)C[C@H](C)/C=C/C=C/C=C/1C", "target_under_test": "YST-1", "test_result": "1.38 nM"}

Can you give me relative IC50 for all of these, one by one?
1. N.N.[Cl][Pt][Cl] [Cisplatin]
2. COc1cc(C(=O)O)ccc1NC(=O)[C@@H]1N[C@@H](CC(C)(C)C)[C@](C#N)(c2ccc(Cl)cc2F)[C@H]1c1cccc(Cl)c1F
3. Cc1cc2c(F)c(Oc3ncnn4cc(OC[C@@H](C)O)c(C)c34)ccc2[nH]1

1. 5180 nM
2. 62 nM
3. > 1000 nM

----------
Tested on: ST8814
experiment_notes: drug sensitivity score (DSS, CellTiter-Glo viability, 72 h) (DSS (dimensionless)); higher = more sensitive; extreme values may be limits of the assay
Criterion: drug sensitivity score meeting or surpassing 6. Met: Met. Not met: Not met.

Solved cases below.
{"compound": "C=C(c1ccc(C(=O)O)cc1)c1cc2c(cc1C)C(C)(C)CCC2(C)C [Bexarotene] (max concentration tested 10000 nM)", "assigned_label": "Not met"}
{"compound": "C[C@]12C=CC(=O)C=C1CC[C@@H]1[C@@H]2C(=O)C[C@@]2(C)[C@H]1CC[C@]2(O)C(=O)CO [Prednisone] (max concentration tested 10000 nM)", "assigned_label": "Not met"}
{"compound": "O=C(CCCCCCC(=O)Nc1ccc([C@H]2O[C@@H](CSc3nc(-c4ccccc4)c(-c4ccccc4)o3)C[C@@H](c3ccc(CO)cc3)O2)cc1)NO [Tubacin] (max concentration tested 10000 nM)", "assigned_label": "Not met"}

Decide: is the reported value of drug sensitivity score for C=CC(=O)Nc1cc2c(Nc3ccc(F)c(Cl)c3)ncnc2cc1OCCCN1CCOCC1 [Canertinib] (max concentration tested 10000 nM) equal to or greater than 6? Met

Decide: is the reported value of drug sensitivity score for O=C(O)CNC(=O)c1c(O)c2ccccc2n(Cc2ccccc2)c1=O [IOX-2] (max concentration tested 50000 nM) equal to or greater than 6? Not met

Decide: is the reported value of drug sensitivity score for CC1=C2C[C@H]3[C@@H](CC=C4C[C@@H](O)CC[C@@]43C)[C@@H]2CC[C@]12O[C@@H]1C[C@H](C)CN[C@H]1[C@H]2C [Cyclopamine] (max concentration tested 10000 nM) equal to or greater than 6? Not met

Decide: is the reported value of drug sensitivity score for O=C(/C=C/c1cccc(S(=O)(=O)Nc2ccccc2)c1)NO [Belinostat] (max concentration tested 10000 nM) equal to or greater than 6? Met

Decide: is the reported value of drug sensitivity score for COc1cccc2c1C(=O)c1c(O)c3c(c(O)c1C2=O)C[C@@](O)(C(C)=O)C[C@@H]3O[C@H]1C[C@H](N)[C@H](O)[C@H](C)O1 [Daunorubicin] (max concentration tested 1000 nM) equal to or greater than 6? Met

----------
Test system: HS-Sch-2
experiment_notes: % inhibition of CellTiter-Glo viability at highest tested concentration (72 h), relative to DMSO and benzethonium chloride controls; higher = more inhibition
Kindly supply the reported % inhibition values for the records listed here.
Give bare numbers, in %.

{"compound": "COc1ccc(C[C@H](NC(=O)[C@H](C)NC(=O)CN2CCOCC2)C(=O)N[C@@H](Cc2ccccc2)C(=O)[C@@]2(C)CO2)cc1 [ONX-0914] (max concentration tested 10000 nM)", "target_under_test": "HS-Sch-2", "% inhibition / %": 101}

Can you give me % inhibition for all of these, one by one?
1. CC(=O)[C@]1(O)Cc2c(O)c3c(c(O)c2[C@@H](O[C@H]2C[C@H](N)[C@H](O)[C@H](C)O2)C1)C(=O)c1ccccc1C3=O [Idarubicin] (max concentration tested 1000 nM)
2. O=C(O)c1ccc2c(c1)nc(Nc1cccc(Cl)c1)c1ccncc12 [Silmitasertib] (max concentration tested 10000 nM)
3. Cn1ncnc1[C@H]1c2n[nH]c(=O)c3cc(F)cc(c23)N[C@@H]1c1ccc(F)cc1 [Talazoparib] (max concentration tested 1000 nM)
4. O=C(O)CCCc1ccc(N(CCCl)CCCl)cc1 [Chlorambucil] (max concentration tested 10000 nM)
5. Cc1cc2c(C(C)C)c(O)c(O)c(C=O)c2c(O)c1-c1c(C)cc2c(C(C)C)c(O)c(O)c(C=O)c2c1O [AT 101] (max concentration tested 100000 nM)

1. 102
2. 52.4
3. 25.4
4. 1.59
5. 101

----------
Kindly supply the reported drug sensitivity score values for the records listed here.
System: HSC1 (primary human Schwann cells)
experiment_notes: drug sensitivity score (DSS, CellTox-Green cytotoxicity, 72 h) (DSS (dimensionless)); higher = more cytotoxic; extreme values may be limits of the assay

{"compound": "CN1CCC(COc2cnc(-c3cccc(Cn4nc(-c5cccc(C#N)c5)ccc4=O)c3)nc2)CC1 (max concentration tested 1000 nM)", "target_under_test": "HSC1 (primary human Schwann cells)", "test_readout": "drug sensitivity score", "test_result": 0}
{"compound": "Nc1ncnc2c1nc(Cl)n2[C@@H]1O[C@H](CO)[C@@H](O)[C@H]1O [8-chloro-adenosine] (max concentration tested 50000 nM)", "target_under_test": "HSC1 (primary human Schwann cells)", "test_readout": "drug sensitivity score", "test_result": 0}
{"compound": "CNC(=O)c1cc(Oc2ccc(NC(=O)Nc3ccc(Cl)c(C(F)(F)F)c3)cc2)ccn1 [Sorafenib] (max concentration tested 1000 nM)", "target_under_test": "HSC1 (primary human Schwann cells)", "test_readout": "drug sensitivity score", "test_result": 0}
{"compound": "CNC(=O)c1cccc(-c2ccc3c(N4CCOC[C@@H]4C)nc(N4CCOC[C@@H]4C)nc3n2)c1 [AZD2014] (max concentration tested 10000 nM)", "target_under_test": "HSC1 (primary human Schwann cells)", "test_readout": "drug sensitivity score", "test_result": 0}
{"compound": "CCc1cncnc1N1CCN(Cc2nc3ccc(C(F)(F)F)cc3[nH]2)CC1 (max concentration tested 10000 nM)", "target_under_test": "HSC1 (primary human Schwann cells)", "test_readout": "drug sensitivity score", "test_result": 0}
{"compound": "COc1cc2/c(=N/c3ccc(Br)cc3F)nc[nH]c2cc1OCC1CCN(C)CC1 [Vandetanib] (max concentration tested 1000 nM)", "target_under_test": "HSC1 (primary human Schwann cells)", "test_readout": "drug sensitivity score", "test_result": 0}
{"compound": "Cc1cn(-c2cc(NC(=O)c3ccc(C)c(Nc4nccc(-c5cccnc5)n4)c3)cc(C(F)(F)F)c2)cn1 [Nilotinib] (max concentration tested 10000 nM)", "target_under_test": "HSC1 (primary human Schwann cells)", "test_readout": "drug sensitivity score", "test_result": 0}
{"compound": "CC[C@@H]1C(=O)N(C)c2cnc(Nc3ccc(C(=O)N[C@H]4CC[C@H](N5CCN(CC6CC6)CC5)CC4)cc3OC)nc2N1C(C)C [Volasertib] (max concentration tested 1000 nM)", "target_under_test": "HSC1 (primary human Schwann cells)", "test_readout": "drug sensitivity score", "test_result": 12.8}

Can you give me drug sensitivity score for all of these, one by one?
1. COc1ccccc1S(=O)(=O)Nc1ccc2c(c1)CN(C)C(=O)N2 [PFI-1] (max concentration tested 10000 nM)
2. C#Cc1cccc(Nc2ncnc3cc(OCCOC)c(OCCOC)cc23)c1 [Erlotinib] (max concentration tested 10000 nM)

[0, 0]

Can you give me drug sensitivity score for all of these, one by one?
1. Cc1ccc(NC(=O)c2ccc(CN3CCN(C)CC3)cc2)cc1Nc1nc(-c2cccnc2)cs1 [Masitinib] (max concentration tested 10000 nM)
2. Cc1c2oc3c(C)ccc(C(=O)N[C@@H]4C(=O)N[C@H](C(C)C)C(=O)N5CCC[C@H]5C(=O)N(C)CC(=O)N(C)[C@@H](C(C)C)C(=O)O[C@@H]4C)c3nc-2c(C(=O)N[C@@H]2C(=O)N[C@H](C(C)C)C(=O)N3CCC[C@H]3C(=O)N(C)CC(=O)N(C)[C@@H](C(C)C)C(=O)O[C@@H]2C)c(N)c1=O [Dactinomycin] (max concentration tested 1000 nM)
3. CC(C)N(CCCNC(=O)Nc1ccc(C(C)(C)C)cc1)C[C@H]1O[C@@H](n2cc(Br)c3c(N)ncnc32)[C@H](O)[C@@H]1O [SGC0946] (max concentration tested 10000 nM)
4. NC(=O)c1ccc(I)c([N+](=O)[O-])c1 [Iniparib] (max concentration tested 10000 nM)
5. CC(C)(C)NC(=O)[C@H]1CC[C@H]2[C@@H]3CC[C@H]4NC(=O)C=C[C@]4(C)[C@H]3CC[C@]12C [Finasteride] (max concentration tested 10000 nM)
6. Oc1nc(-c2ccc(C(F)(F)F)cc2)nc2c1CSCC2 [XAV-939] (max concentration tested 10000 nM)

1: 2.96; 2: 12.7; 3: 0; 4: 0; 5: 0; 6: 0

Can you give me drug sensitivity score for all of these, one by one?
1. Nc1nc(NC2CC2)cc(-c2cccc(Cl)c2Cl)n1 [TH588] (max concentration tested 25000 nM)
2. CC/C(=C(\c1ccccc1)c1ccc(OCCN(C)C)cc1)c1ccccc1 [Tamoxifen] (max concentration tested 10000 nM)

4.29
0

Can you give me drug sensitivity score for all of these, one by one?
1. CN1CC[C@H](c2c(O)cc(O)c3c(=O)cc(-c4ccccc4Cl)oc23)[C@H](O)C1 [Alvocidib] (max concentration tested 10000 nM)
2. CC(=O)OC[C@H]1O[C@@H]([S-])[C@H](OC(C)=O)[C@@H](OC(C)=O)[C@@H]1OC(C)=O.CCP(CC)CC.[Au+] [Auranofin] (max concentration tested 2500 nM)

1: 8.24; 2: 7.83

Can you give me drug sensitivity score for all of these, one by one?
1. CNC(=O)c1ccc(N2C(=S)N(c3ccc(C#N)c(C(F)(F)F)c3)C(=O)C2(C)C)cc1F [Enzalutamide] (max concentration tested 10000 nM)
2. Cc1ccc(C(=O)N(CCCN)[C@@H](c2oc3cc(Cl)ccc3c(=O)c2Cc2ccccc2)C(C)C)cc1 (max concentration tested 100 nM)

1. 0
2. 0
